biological target: HTRA2, O43464; test: holdup assay; parameters: key: below the threshold = too weak to quantify, mostly under pKd 3.1 to 4; details: plain residues with an end cap or a label only (N-terminal biotin on a linker: ado-ado)
Sequence (O43464 355-458): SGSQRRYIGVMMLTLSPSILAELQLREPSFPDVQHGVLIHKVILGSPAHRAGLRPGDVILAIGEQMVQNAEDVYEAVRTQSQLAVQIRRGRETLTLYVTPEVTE
RECORDED ENDPOINT: pKd

[[record]]
binder = "TETASVCTKV [SLC23A1, Q9UHI7]"
val = "below the threshold"

[[record]]
binder = "QKNKDKEYYV [NRXN3_rs746444206, Q9Y4C0]"
val = 3.51

[[record]]
binder = "EEPEERHTEL [CES2, O00748]"
val = "below the threshold"

[[record]]
binder = "EDLTKNHDEL [RCN1, Q15293]"
val = "below the threshold"


Now for the binder whose pKd we want.
QUERY: GET /values?readout=pKd&item= FVHPILQSAV [PRKCA, P17252]
RESULT: below the threshold
